EXPERIMENT: Pharmacokinetics (plasma and urine) of ascending multiple oral doses in healthy volunteers
Format: in vivo, human
CONDITION SUMMARY: both sexes, human, plasma, oral, 25 mg, 25 mg QD, Day 1, plasma, healthy subjects (N = 8); geometric mean; read-out: Cmax
OBSERVED PROPERTY: Cmax (µg/mL)

[[record]]
molecule_smiles = "O[C@H]1CC[C@H](Nc2ncc3nc(Nc4c(F)cc(F)cc4F)n([C@H]4CCOC4)c3n2)CC1"
observed_property = "Cmax"
measured = 0.212


* * *

EXPERIMENT: Toxicokinetics in pregnant female rats
Type: in vivo, rat
CONDITION SUMMARY: female, Crl:CD(SD), rat, plasma, 100 mg/kg/day; pregnant rats, 100 mg/kg/d oral, Gestation Day 6
OBSERVED PROPERTY: AUC

[[record]]
compound = "O[C@H]1CC[C@H](Nc2ncc3nc(Nc4c(F)cc(F)cc4F)n([C@H]4CCOC4)c3n2)CC1 [Compound I]"
measured = "102 µg·h/mL"


* * *

EXPERIMENT: Toxicokinetics in pregnant female rabbits
Assay type: in vivo, rabbit
CONDITION SUMMARY: female, New Zealand White Hra:(NZW)SPF, rabbit, plasma, po, 10 mg/kg/day, pregnant rabbits, 10 mg/kg/d oral, Gestation Day 7
OBSERVED PROPERTY: Cmax

[[record]]
molecule_smiles = "O[C@H]1CC[C@H](Nc2ncc3nc(Nc4c(F)cc(F)cc4F)n([C@H]4CCOC4)c3n2)CC1"
observed_property = "Cmax"
measured = "6520 ng/mL"


* * *

EXPERIMENT: Pharmacokinetics of a single ascending oral dose in healthy male subjects
Assay type: in vivo, human
CONDITION SUMMARY: human, in vivo; single oral dose 100 mg, unformulated in capsule, healthy male subjects; geometric mean
OBSERVED PROPERTY: AUC(0-inf) (ng·h/mL)

[[record]]
compound = "O[C@H]1CC[C@H](Nc2ncc3nc(Nc4c(F)cc(F)cc4F)n([C@H]4CCOC4)c3n2)CC1 [Compound I]"
observed_property = "AUC(0-inf)"
measured = 13600


* * *

EXPERIMENT: Toxicokinetics in pregnant female rats
Type: in vivo, rat
CONDITION SUMMARY: female, CD [Crl:CD(SD)], rat, plasma, 50 mg/kg/day; pregnant rats, 50 mg/kg/d oral, Gestation Day 16
OBSERVED PROPERTY: AUC (ng·h/mL)

[[record]]
molecule_smiles = "O[C@H]1CC[C@H](Nc2ncc3nc(Nc4c(F)cc(F)cc4F)n([C@H]4CCOC4)c3n2)CC1"
observed_property = "AUC"
unit_text = "ng·h/mL"
measured = 42300


* * *

EXPERIMENT: Pharmacokinetics of a single ascending oral dose in healthy male subjects
Assay type: in vivo, human
CONDITION SUMMARY: human, in vivo; single oral dose 200 mg, unformulated in capsule, healthy male subjects; geometric mean
OBSERVED PROPERTY: half-life (h)

[[record]]
molecule_smiles = "O[C@H]1CC[C@H](Nc2ncc3nc(Nc4c(F)cc(F)cc4F)n([C@H]4CCOC4)c3n2)CC1"
observed_property = "half-life"
unit_text = "h"
measured = 25


* * *

EXPERIMENT: Pharmacokinetics of a single ascending oral dose in healthy male subjects
Assay type: in vivo, human
CONDITION SUMMARY: human, in vivo; single oral dose 50 mg, unformulated in capsule, healthy male subjects; geometric mean; read-out: Vz/F
OBSERVED PROPERTY: Vd/F (L)

[[record]]
molecule_smiles = "O[C@H]1CC[C@H](Nc2ncc3nc(Nc4c(F)cc(F)cc4F)n([C@H]4CCOC4)c3n2)CC1"
unit_text = "L"
measured = 202


* * *

EXPERIMENT: clinical
CONDITION SUMMARY: male, human, in vivo, po, 100 mg, AUC0-∞, Geometric Mean
OBSERVED PROPERTY: AUC(0-inf) (ng·h/mL)

[[record]]
compound = "O[C@H]1CC[C@H](Nc2ncc3nc(Nc4c(F)cc(F)cc4F)n([C@H]4CCOC4)c3n2)CC1 [Compound I]"
measured = 15000


* * *

EXPERIMENT: Toxicokinetics in pregnant female rats
Type: in vivo, rat
CONDITION SUMMARY: female, CD [Crl:CD(SD)], rat, plasma, 100 mg/kg/day; pregnant rats, 100 mg/kg/d oral, Gestation Day 16
OBSERVED PROPERTY: Cmax (µg/mL)

[[record]]
molecule_smiles = "O[C@H]1CC[C@H](Nc2ncc3nc(Nc4c(F)cc(F)cc4F)n([C@H]4CCOC4)c3n2)CC1"
unit_text = "µg/mL"
measured = 8.13


* * *

EXPERIMENT: Pharmacokinetics of a single ascending oral dose in healthy male subjects
Type: in vivo, human
CONDITION SUMMARY: human, in vivo; single oral dose 5 mg, unformulated in capsule, healthy male subjects; geometric mean
Method: Methods: The study was a randomized, double-blind, placebo-controlled, single-ascending-dose trial. Forty-five healthy male subjects were enrolled into 1 of the 5 cohorts (active:placebo=7:2 per cohort). Subjects received single oral doses of 5 mg, 25 mg, 50 mg, 100 mg or 200 mg of unformulated Compound I in a capsule, or matching placebo.
OBSERVED PROPERTY: AUC(0-inf) (ng·h/mL)

[[record]]
molecule_smiles = "O[C@H]1CC[C@H](Nc2ncc3nc(Nc4c(F)cc(F)cc4F)n([C@H]4CCOC4)c3n2)CC1"
observed_property = "AUC(0-inf)"
unit_text = "ng·h/mL"
measured = 625


* * *

EXPERIMENT: Pharmacokinetics (plasma and urine) of ascending multiple oral doses in healthy volunteers
Type: in vivo, human
CONDITION SUMMARY: both sexes, human, plasma, oral, 100 mg, 100 mg QD, Day 14, plasma, healthy subjects (N = 8); median; read-out: tmax
OBSERVED PROPERTY: Tmax (h)

[[record]]
compound = "O[C@H]1CC[C@H](Nc2ncc3nc(Nc4c(F)cc(F)cc4F)n([C@H]4CCOC4)c3n2)CC1 [Compound I]"
measured = 1.8


* * *

EXPERIMENT: Pharmacokinetics of a single ascending oral dose in healthy male subjects
Format: in vivo, human
CONDITION SUMMARY: human, in vivo; single oral dose 5 mg, unformulated in capsule, healthy male subjects; geometric mean; read-out: Vz/F
OBSERVED PROPERTY: Vd/F

[[record]]
compound = "O[C@H]1CC[C@H](Nc2ncc3nc(Nc4c(F)cc(F)cc4F)n([C@H]4CCOC4)c3n2)CC1 [Compound I]"
measured = "221 L"


* * *

EXPERIMENT: clinical
CONDITION SUMMARY: both sexes, human, in vivo, po, 100 mg, AUC0-t, Geometric Means
OBSERVED PROPERTY: AUC(0-t) (ng·h/mL)

[[record]]
compound = "O[C@H]1CC[C@H](Nc2ncc3nc(Nc4c(F)cc(F)cc4F)n([C@H]4CCOC4)c3n2)CC1 [Compound I]"
observed_property = "AUC(0-t)"
measured = 13500


* * *

EXPERIMENT: clinical
CONDITION SUMMARY: female, human, in vivo, po, 100 mg, median Tmax
OBSERVED PROPERTY: Tmax (h)

[[record]]
compound = "O[C@H]1CC[C@H](Nc2ncc3nc(Nc4c(F)cc(F)cc4F)n([C@H]4CCOC4)c3n2)CC1 [Compound I]"
observed_property = "Tmax"
measured = 2


* * *

EXPERIMENT: Toxicokinetics in pregnant female rabbits
Assay type: in vivo, rabbit
CONDITION SUMMARY: female, New Zealand White Hra:(NZW)SPF, rabbit, plasma, po, 20 mg/kg/day, pregnant rabbits, 20 mg/kg/d oral, Gestation Day 7
OBSERVED PROPERTY: Cmax (ng/mL)

[[record]]
molecule_smiles = "O[C@H]1CC[C@H](Nc2ncc3nc(Nc4c(F)cc(F)cc4F)n([C@H]4CCOC4)c3n2)CC1"
measured = 12500


* * *

EXPERIMENT: Pharmacokinetics (plasma and urine) of ascending multiple oral doses in healthy volunteers
Format: in vivo, human
CONDITION SUMMARY: both sexes, human, plasma, oral, 200 mg, 200 mg QD, Day 14, plasma, healthy subjects (N = 8); geometric mean; read-out: Cmax
OBSERVED PROPERTY: Cmax (ng/mL)

[[record]]
molecule_smiles = "O[C@H]1CC[C@H](Nc2ncc3nc(Nc4c(F)cc(F)cc4F)n([C@H]4CCOC4)c3n2)CC1"
unit_text = "ng/mL"
measured = 1740


* * *

EXPERIMENT: Pharmacokinetics (plasma and urine) of ascending multiple oral doses in healthy volunteers
Format: in vivo, human
CONDITION SUMMARY: both sexes, human, oral; 25 mg QD, Day 14, plasma (N = 8); geometric mean; read-out: Vz/F
OBSERVED PROPERTY: Vd/F (L)

[[record]]
compound = "O[C@H]1CC[C@H](Nc2ncc3nc(Nc4c(F)cc(F)cc4F)n([C@H]4CCOC4)c3n2)CC1 [Compound I]"
unit_text = "L"
measured = 256

